Tested on: Tyrosine-protein kinase ABL1 (Homo sapiens), P00519 [M351T]
Conditions: at 0.1 µM
This section presents compounds with their documented inhibition values.
Hey, just the number and the unit after it is fine.

Please review the following examples before continuing.
Q: What value of measured inhibition is listed for CCn1c(-c2nonc2N)nc2c(C#CC(C)(C)O)nc(OC[C@@H](N)c3ccccc3)cc21 ?
A: 1.41%

Q: What value of measured inhibition is listed for CCN1CCC(CC(=O)Nc2n[nH]c3nc(-c4cccs4)c(Br)cc23)CC1 ?
A: -0.05%

---
Q: What value of measured inhibition is listed for [O-][S+]1CCN(Cc2ccc(-c3ccc4ncnc(Nc5ccc(OCc6ccccc6)c(F)c5)c4c3)o2)CC1 ?
A: 2.17%
